- Test system: ATP;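 also: ATP exposure 15 min at 22 °C before imaging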
- protocol_details: switch fluorescence ratio, 500 uM ATP over buffer (Cy3 cluster intensity, sum of 5 cycles each) (fold (ratio)); higher = stronger signal-on switching upon ATP binding; sequences stand for … in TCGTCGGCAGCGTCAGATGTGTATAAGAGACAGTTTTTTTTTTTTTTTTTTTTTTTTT…TC
- cond: aptamer strand: ATP DNA aptamer (quencher-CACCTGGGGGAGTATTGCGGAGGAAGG + anchor), 100 nM annealed; ATP concentration: 500 uM
recorded_metric: switch fluorescence ratio

Solved entries:
chain_sequence | study_target | result
AGTTCCGTTT | ATP | 0.994
TGCGGGGTCG | ATP | 1.01
AGGTAGTCTG | ATP | 0.976
CGGGTTCGTG | ATP | 0.972

switch fluorescence ratio reported for this sequence AATGTTATAG : 1.01
